measured.attribute: IC50 (µM)
Give just the numeric value; µM need not be written.

Recall the recorded IC50 for COc1cc(Nc2cc(Oc3ccc(NC(=O)Nc4cc(C(C)(C)C)cc(NS(C)(=O)=O)c4OC)c4ccccc34)ccn2)ccc1C(=O)N(C)CCCN1CCS(=O)(=O)CC1 with Glycogen synthase kinase-3 alpha (Homo sapiens) and state it.
Sequence (P49840 whole entry): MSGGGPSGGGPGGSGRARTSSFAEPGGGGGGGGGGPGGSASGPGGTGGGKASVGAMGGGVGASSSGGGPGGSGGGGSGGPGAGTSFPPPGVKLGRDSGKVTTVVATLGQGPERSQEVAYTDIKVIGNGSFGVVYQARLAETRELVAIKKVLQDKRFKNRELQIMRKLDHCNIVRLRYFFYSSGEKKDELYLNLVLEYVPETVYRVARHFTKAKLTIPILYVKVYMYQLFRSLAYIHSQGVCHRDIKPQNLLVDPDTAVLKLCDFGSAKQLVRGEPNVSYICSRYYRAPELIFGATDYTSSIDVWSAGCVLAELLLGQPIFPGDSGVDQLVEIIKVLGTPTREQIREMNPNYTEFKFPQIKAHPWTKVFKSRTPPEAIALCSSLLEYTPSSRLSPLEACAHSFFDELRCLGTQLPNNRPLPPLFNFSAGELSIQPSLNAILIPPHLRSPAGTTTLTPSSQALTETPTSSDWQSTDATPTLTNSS
9.19

---

- assayed.system: UniProtKB P12931
- Sequence (P12931 2-536 limits assumed): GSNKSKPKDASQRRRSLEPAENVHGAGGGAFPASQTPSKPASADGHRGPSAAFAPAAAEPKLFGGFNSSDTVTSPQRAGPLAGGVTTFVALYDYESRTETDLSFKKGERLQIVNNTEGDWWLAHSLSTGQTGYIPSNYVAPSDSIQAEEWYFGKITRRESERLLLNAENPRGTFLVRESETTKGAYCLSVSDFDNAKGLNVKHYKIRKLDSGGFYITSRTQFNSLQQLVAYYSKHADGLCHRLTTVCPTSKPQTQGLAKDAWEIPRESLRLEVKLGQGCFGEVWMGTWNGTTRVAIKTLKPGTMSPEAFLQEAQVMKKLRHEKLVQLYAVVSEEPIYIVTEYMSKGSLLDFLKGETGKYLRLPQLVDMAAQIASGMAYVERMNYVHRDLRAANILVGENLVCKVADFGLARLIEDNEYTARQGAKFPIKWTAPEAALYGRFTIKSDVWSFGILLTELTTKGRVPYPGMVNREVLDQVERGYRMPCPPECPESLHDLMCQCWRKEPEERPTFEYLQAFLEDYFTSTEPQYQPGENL
- test: Enzyme Inhibition
measured.attribute: pIC50
On this scale, pIC50 is minus log10 of a concentration expressed in M (mol/L).

Recall the recorded pIC50 for COc1cc(Nc2cc(Oc3ccc(NC(=O)Nc4cc(C(C)(C)C)cc(N[S+](C)[O-])c4OC)c4ccccc34)ccn2)ccc1C(=O)NCCN1CCN(C)CC1 (stereo unspecified) with UniProtKB P12931 and state it.
7.80
